Target: NEK11 (human) (UniProt Q8NG66)
Sequence (Q8NG66 whole entry, looked up): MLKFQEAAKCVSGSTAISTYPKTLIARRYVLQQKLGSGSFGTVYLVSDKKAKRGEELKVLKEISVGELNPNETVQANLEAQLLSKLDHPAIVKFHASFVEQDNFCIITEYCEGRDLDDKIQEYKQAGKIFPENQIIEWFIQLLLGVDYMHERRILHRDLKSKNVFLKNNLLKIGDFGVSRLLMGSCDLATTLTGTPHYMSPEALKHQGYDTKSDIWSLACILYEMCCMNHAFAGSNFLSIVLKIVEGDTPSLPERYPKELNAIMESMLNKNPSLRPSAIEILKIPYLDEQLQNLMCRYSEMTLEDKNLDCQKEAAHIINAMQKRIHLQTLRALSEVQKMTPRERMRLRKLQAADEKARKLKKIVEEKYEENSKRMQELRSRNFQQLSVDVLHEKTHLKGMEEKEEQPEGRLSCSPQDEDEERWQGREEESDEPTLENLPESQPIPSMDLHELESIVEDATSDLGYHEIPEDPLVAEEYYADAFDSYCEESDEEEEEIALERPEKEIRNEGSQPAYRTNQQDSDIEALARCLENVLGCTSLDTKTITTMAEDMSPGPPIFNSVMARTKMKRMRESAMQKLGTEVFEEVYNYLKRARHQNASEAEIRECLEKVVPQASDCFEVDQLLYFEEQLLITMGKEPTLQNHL
Assay: radiometric filter-binding kinase assay, Kinase HotSpot
Details: compound 0.5 µM; ATP 10 µM

structure-smiles	measurement-unit	residual activity
Oc1ccc(-c2nc(-c3ccc(F)cc3)c(-c3ccncc3)[nH]2)cc1	%	80.6
CC(C)(C)c1nc2c3ccc(F)cc3c3c(=O)[nH]ccc3c2[nH]1	%	92.4
Cc1cc2ncc(-c3ccccc3)nc2cc1C	%	104
Clc1ccc(Nc2nnc(Cc3ccncc3)c3ccccc23)cc1	%	87
O=c1cc(-c2cccc3c2Sc2ccccc2S3)oc(N2CCOCC2)c1	%	88.5
COc1cc2nccc(Oc3ccc(NC(=S)NC(=O)c4ccccc4C)cc3)c2cc1OC	%	96.7
O=C1Nc2cc(Br)ccc2/C1=C1/Nc2ccccc2/C1=N\O	%	118
